Data origin, for the record: PubChem BioAssay AID1963832

tested on: 885724-159-R-J1-PDC complex spheroid viability; assay: Anticancer human tumor 885724-159-R-J1-PDC patient-derived pancreatic adenocarcinoma cell line growth inhibition [POLQ]; settings: second compound 0.1 µM; first compound 10 µM; stronger effect = lower value;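 also: spheroids exposed to compounds for 7 days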
measurement_kind: viability, T/C (%)

compound="CC1COCCN1c1cc(C2(O)CC3CCC(C2)O3)c2cnn(-c3ccn[nH]3)c2n1 (stereo not given) + Cc1cccc(N(C)C(=O)C2C(O)CCN2c2nc(C)cc(C(F)(F)F)c2C#N)c1" numeric_readout=30.8
compound="CCc1cc2c(N3CCc4c(cc(Cn5ccnc5)cc4-c4cn(C)nc4C(F)(F)F)C3=O)cc(C)nc2c(OC)n1 + Nc1ccc(C#CCN(C(=O)Cc2ncc(C(F)(F)F)cc2C(F)(F)F)c2ccc(F)cc2)nn1" numeric_readout=60.3
compound="COc1cccc2c1C(=O)c1c(O)c3c(c(O)c1C2=O)CC(O)(C(=O)CO)CC3OC1CC(N)C(O)C(C)O1 (stereo not given) + Nc1ccc(C#CCN(C(=O)Cc2ncc(C(F)(F)F)cc2C(F)(F)F)c2ccc(F)cc2)nn1" numeric_readout=6.34
compound="C=CC(=O)N1CCN(c2nc(=O)n(-c3c(C)ccnc3C(C)C)c3nc(-c4c(O)cccc4F)c(F)cc23)C(C)C1 (stereo not given) + COC1C(OC(N)=O)C(O)C(Oc2ccc3c(O)c(NC(=O)c4ccc(O)c(CC=C(C)C)c4)c(=O)oc3c2C)OC1(C)C" numeric_readout=105
compound="CC1COCCN1c1cc(-c2ccnn2C)c2ccnc(-c3ccn[nH]3)c2n1 (stereo not given) + Cc1cccc(N(C)C(=O)C2C(O)CCN2c2nc(C)cc(C(F)(F)F)c2C#N)c1" numeric_readout=36.1
